- assayed system: T1, human GIP receptor (human, UniProt P48546 22-466)
- T1 construct: whole, on cells; also called hGIPR; human glucose-dependent insulinotropic polypeptide receptor
- T1 sequence (looked up): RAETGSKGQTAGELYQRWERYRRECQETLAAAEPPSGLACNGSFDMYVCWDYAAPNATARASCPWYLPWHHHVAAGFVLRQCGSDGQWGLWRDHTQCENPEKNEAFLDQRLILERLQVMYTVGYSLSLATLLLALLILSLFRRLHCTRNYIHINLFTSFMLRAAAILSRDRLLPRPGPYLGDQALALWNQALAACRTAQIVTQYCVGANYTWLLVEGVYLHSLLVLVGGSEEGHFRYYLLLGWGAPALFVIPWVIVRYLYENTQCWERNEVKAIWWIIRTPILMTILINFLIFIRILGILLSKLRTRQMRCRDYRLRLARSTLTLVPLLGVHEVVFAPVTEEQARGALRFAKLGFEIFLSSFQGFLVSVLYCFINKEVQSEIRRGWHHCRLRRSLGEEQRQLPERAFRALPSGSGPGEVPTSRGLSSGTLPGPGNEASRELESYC
- protocol description: SPA competition vs [125I]-GIP, hGIPR membranes
Field: class. Source value: Ki. Ranges: 0 = under 0.03 nM, 1 = from 0.03 nM up to 0.05 nM, 2 = 0.05 nM and over

Solved entries:
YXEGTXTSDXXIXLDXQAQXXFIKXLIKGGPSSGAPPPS (Aib2, αMeF(2F)6, 4Pal10, Aib11, αMeL13, Orn16, Aib20, 4Pal21, K24(Z1), αMeY25, K28(Z1), C-term NH2; Z1=AEEA2-(γ-Glu)-(10-(4-carboxyphenoxy)decanoyl))
1
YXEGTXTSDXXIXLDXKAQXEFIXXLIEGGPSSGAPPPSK (Aib2, αMeF(2F)6, 4Pal10, Aib11, αMeL13, Orn16, K17(Z1), Aib20, D-Glu24, αMeY25, K40(Z1), C-term NH2; Z1=AEEA2-(γ-Glu)-CO-(CH2)10-CH3)
0
YXEGTXTSDXXIXLDXKAQXXFIXXLIKGGPSSGAPPPS (Aib2, αMeF(2F)6, 4Pal10, Aib11, αMeL13, Orn16, K17(Z1), Aib20, Orn21, D-Glu24, αMeY25, K28(Z1), C-term NH2; Z1=AEEA2-(γ-Glu)-CO-(CH2)10-CH3)
0
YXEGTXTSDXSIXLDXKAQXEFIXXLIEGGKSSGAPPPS (Aib2, αMeF(2F)6, 4Pal10, αMeL13, Orn16, K17(Z1), Aib20, D-Glu24, αMeY25, K31(Z1), C-term NH2; Z1=AEEA2-(γ-Glu)-CO-(CH2)10-CO2H)
2
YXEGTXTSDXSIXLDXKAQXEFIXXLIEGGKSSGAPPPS (Aib2, αMeF(2F)6, Ac5c10, αMeL13, Orn16, K17(Z1), Aib20, D-Glu24, αMeY25, K31(Z1), C-term NH2; Z1=AEEA2-(γ-Glu)-CO-(CH2)12-CO2H)
2

Query: Into which category would you place YXEGTXTSDXSIXLDXKAQXEFIXXLIKGGPSSGAPPPS (Aib2, αMeF(2F)6, 4Pal10, αMeL13, Orn16, K17(Z1), Aib20, D-Glu24, αMeY25, K28(Z1), C-term NH2; Z1=AEEA2-(γ-Glu)-CO-(CH2)12-CO2H) ?
Reply: 2

Query: Note: place this binder into its band. Item: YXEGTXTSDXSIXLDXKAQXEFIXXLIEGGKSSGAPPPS (Aib2, αMeF(2F)6, 4Pal10, αMeL13, Orn16, K17(Z1), Aib20, D-Glu24, αMeY25, K31(Z1), C-term NH2; Z1=(εK)-(εK)-(γ-Glu)-CO-(CH2)12-CO2H)
Reply: 2

Query: Quick check: band for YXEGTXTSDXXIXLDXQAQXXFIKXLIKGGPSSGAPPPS (Aib2, αMeF(2F)6, 4Pal10, Aib11, αMeL13, Orn16, Aib20, Orn21, K24(Z1), αMeY25, K28(Z1), C-term NH2; Z1=AEEA-Trx-(γ-Glu)-(10-(4-carboxyphenoxy)decanoyl))
Reply: 1

Query: Category of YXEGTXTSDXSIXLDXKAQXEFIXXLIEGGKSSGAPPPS (Aib2, αMeF(2F)6, 4Pal10, αMeL13, Orn16, K17(Z1), Aib20, D-Glu24, αMeY25, K31(Z1), C-term NH2; Z1=(εK)-(γ-Glu)-CO-(CH2)12-CO2H) , please.
Reply: 2

Query: Categorize the following entry: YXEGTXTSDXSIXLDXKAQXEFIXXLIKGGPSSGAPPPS (Aib2, αMeF(2F)6, 4Pal10, αMeL13, Orn16, K17(Z1), Aib20, D-Glu24, αMeY25, K28(Z1), C-term NH2; Z1=AEEA2-(γ-Glu)-CO-(CH2)14-CH3)
Reply: 0

Query: For this binder, which bin applies? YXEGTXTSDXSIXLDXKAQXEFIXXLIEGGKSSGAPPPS (Aib2, αMeF(2F)6, 4Pal10, αMeL13, Orn16, K17(Z1), Aib20, D-Glu24, αMeY25, K31(Z1), C-term NH2; Z1=AEEA2-(γ-Glu)-(10-(4-carboxyphenoxy)decanoyl))
Reply: 1

Query: Lab log: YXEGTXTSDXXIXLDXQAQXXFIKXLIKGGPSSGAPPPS (Aib2, αMeF(2F)6, 4Pal10, Aib11, αMeL13, Orn16, Aib20, Orn21, K24(Z1), αMeY25, K28(Z1), C-term NH2; Z1=AEEA2-(γ-Glu)-CO-(CH2)12-CO2H) — assign Ki category
Reply: 0

Query: Any idea which band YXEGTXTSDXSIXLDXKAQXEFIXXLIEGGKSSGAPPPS (Aib2, αMeF(2F)6, 4Pal10, αMeL13, Orn16, K17(Z1), Aib20, D-Glu24, αMeY25, K31(Z1), C-term NH2; Z1=AEEA3-(γ-Glu)-CO-(CH2)12-CO2H) is in?
Reply: 2

Query: Which band does YXEGTXTSDKSIXLDXKAQXEXIXXLIEGGPSSGAPPPS (Aib2, αMeF(2F)6, K10(Z1), αMeL13, Orn16, K17(Z1), Aib20, αMeF22, D-Glu24, αMeY25, C-term NH2; Z1=AEEA2-(γ-Glu)-CO-(CH2)10-CH3) fall in?
Reply: 0

Query: Assign a category based on measured Ki for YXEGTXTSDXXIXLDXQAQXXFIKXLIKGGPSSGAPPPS (Aib2, αMeF(2F)6, 4Pal10, Aib11, αMeL13, Orn16, Aib20, Orn21, K24(Z1), αMeY25, K28(Z1), C-term NH2; Z1=AEEA-(γ-Glu)3-(10-(4-carboxyphenoxy)decanoyl)) and give only the class name.
Reply: 2
